Each record here notes measured efflux ratio at 2 h, 1 μM.
# assay: Determination of Efflux-Ratio (ER) in Caco-2 cells
# assay-setup: human, Caco-2, pH 7.4

Some solved entries appear below for comparison.
# substance-smiles, obs-value
rows = [
    ("Cn1cc(-c2ccc(CNc3cc(-c4cnc5cc(OCCN6CC(S(C)(=O)=O)C6)ccn45)ncn3)cc2)cn1", "> 50"),
    ("Cn1ncc(-c2ccc(CNc3cc(-c4cnc5cc(OCCCS(C)(=O)=O)ccn45)ncn3)cc2)n1", "15 to 50"),
    ("Cn1cc(-c2ccc(CNc3cc(-c4cnc5cc(OCCN6CC(C)(C#N)C6)ccn45)ncn3)cc2)cn1", "< 15"),
    ("Cn1cc(-c2ccc(CNc3cc(-c4cnc5cc(OCCN6CCN(C7CC7)CC6)ccn45)ncn3)cc2)cn1", "< 15"),
    ("Cn1cc(-c2ccc(CNc3cc(-c4cnc5cc(N6CC7(COC7)C6)ccn45)ncn3)cc2)cn1", "< 15"),
]

Find the recorded efflux ratio at 2 h, 1 μM belonging to `CN1CC2CCC(C1)N2CCOc1ccn2c(-c3cc(NCc4ccc(-c5cnn(C)c5)cc4)ncn3)cnc2c1` and report it.
15 to 50

Any idea what its efflux ratio at 2 h, 1 μM is? The molecule is `CN1CCC(Oc2ccn3c(-c4cc(NCc5ccc(-c6cnn(C)c6)cc5)ncn4)cnc3c2)CC1`
< 15

# efflux ratio at 2 h, 1 μM lookup, item `CN1CCC(COc2ccn3c(-c4cc(NCc5ccc(-c6cnn(C)c6)cc5)ncn4)cnc3c2)CC1`
< 15
